Task for the reader: assign each of the following molecules its reported IC50.
# Measured target: CRTH2 (Homo sapiens)
# Sequence (Q9Y5Y4 whole entry): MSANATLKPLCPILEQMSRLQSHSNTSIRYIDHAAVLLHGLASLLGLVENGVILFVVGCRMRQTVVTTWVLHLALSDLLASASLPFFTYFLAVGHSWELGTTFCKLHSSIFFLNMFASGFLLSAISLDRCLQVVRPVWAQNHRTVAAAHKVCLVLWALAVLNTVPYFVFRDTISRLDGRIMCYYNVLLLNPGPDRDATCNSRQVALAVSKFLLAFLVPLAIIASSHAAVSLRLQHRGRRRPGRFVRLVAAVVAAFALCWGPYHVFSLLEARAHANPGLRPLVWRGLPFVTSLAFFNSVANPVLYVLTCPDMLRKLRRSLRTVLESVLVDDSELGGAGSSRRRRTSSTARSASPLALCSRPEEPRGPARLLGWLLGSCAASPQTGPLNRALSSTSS
# Test: DPBS CD11b antagonist assay (CD11b expression in eosinophils)
# Format: cell-based
# Test context: challenged with 10 nM 15R-Methyl-PGD2, read-out: CD11b Antag IC50(nM) [HuEos-DPBS-vs10nM15R]

// worked examples, IC50 included
Cc1c(Cc2ccccc2S(=O)(=O)c2ccccc2)cc(-c2ccccc2)n1CC(=O)O ... < 5 nM
Cc1nn(CC(=O)O)c(C)c1Cc1ccccc1S(=O)(=O)N1CCCC1 ... 100 to 500 nM
Cc1c(Cc2ccccc2S(=O)(=O)N2CCCC2)c(C(=O)c2ccccc2)c(C)n1CC(=O)O ... < 5 nM
Cc1c(Cc2ccccc2S(=O)(=O)N2CCCC2)c(-c2ccccc2)c(C)n1CC(=O)O ... < 5 nM
Cc1c(C#N)c(Cc2ccccc2S(=O)(=O)N2CCOCC2)c(C)n1CC(=O)O ... 5 to 100 nM

Give IC50 for all molecules that follow.
1. CC(=O)c1c(Cc2ccccc2S(=O)(=O)c2ccccc2)c(C)n(CC(=O)O)c1C
2. Cc1c(Cc2ccccc2S(=O)(=O)c2ccccc2)cc(-c2ccc(C(F)(F)F)cc2)n1CC(=O)O
3. Cc1c(C#N)c(Cc2ccccc2S(=O)(=O)N2CCCC2)c(C)n1CC(=O)O
4. CC(=O)c1c(Cc2ccccc2S(=O)(=O)N2CCCC2)c(C)n(CC(=O)O)c1C
5. Cc1c(Cc2ccccc2S(=O)(=O)c2ccccc2)c(C#N)c(-c2ccccc2)n1CC(=O)O
6. Cc1cc(Cc2ccccc2S(=O)(=O)N2CCCC2)c(C)n1CC(=O)O
7. CCOC(=O)Cn1c(C)c(C#N)c(Cc2ccccc2S(=O)(=O)N2CCCC2)c1C

*A*
1. < 5 nM
2. 5 to 100 nM
3. < 5 nM
4. < 5 nM
5. < 5 nM
6. 5 to 100 nM
7. > 500 nM

Look at each molecule and report its IC50.
1. Cc1cc(C(=O)c2ccccc2S(=O)(=O)N2CCOCC2)c(C)n1CC(=O)O
2. Cc1cc(Sc2ccccc2S(=O)(=O)N2CCOCC2)c(C)n1CC(=O)O
3. Cc1c(Cc2ccc(S(=O)(=O)N3CCCC3)cc2)c(C)n(CC(=O)O)c1CCO
4. Cc1c(C#N)c(Cc2ccccc2S(=O)(=O)c2ccccc2)c(C)n1CC(=O)O

*A*
1: > 500 nM; 2: < 5 nM; 3: > 500 nM; 4: < 5 nM

Reference source for all entries: patent US8674115B2
